- Test system: MDCK cell monolayers
- procedure-text: Effect on transepithelial electrical resistance (TEER) across MDCK cell monolayers
- Format: cell-based, canine
- condition-parameters: Canis lupus familiaris, 0.5 h; MDCK cells, apical, 30-minute incubation at 37° C., mean ± SD; read-out: EC50 (concentration required to decrease TEER by fifty percent)
Known pEC50 of a selection of molecules
Scale: negative log10 of molar concentration, which is what pEC50 denotes.

{"columns": ["molecule", "pEC50"],
 "data": [
  ["CCCCCCCCCCCCCCCCCCOP(=O)([O-])OCC[N+](C)(C)C", 4.23],
  ["CCCCCCCCCCCCCCOP(=O)([O-])OCC[N+](C)(C)C", 4.36],
  ["CCCCCCCCCCCCCCCCCCCCOP(=O)([O-])OCC[N+](C)(C)C", 4.15],
  ["COc1ccc2c(c1)CCC1C2CCC2(C)C(NCCCCCCN3C(=O)C=CC3=O)CCC12 (stereo not shown) [U-73,122, reference compound]", 5.22],
  ["CCCCCCCCCCCCCCCCOP(=O)([O-])OCC[N+](C)(C)C", 4.54],
  ["O=c1oc2ccccc2cc1[N+](=O)[O-] [3-nitrocoumarin, reference compound]", 4.62]
]}

Exercise: I am curious: what pEC50 value has been reported for CCCCCCCCCCCCOP(=O)([O-])OCC[N+](C)(C)C ?
Key: 3.13
